Reference source for all entries: patent US20090253669A1

molecular target: B1R receptor of the rat (rB1R) (Rattus norvegicus); construct: host or cells: CHO K1 cells; test: FLIPR Ca2+ assay on rB1R-transfected CHO K1 cells, antagonistic action; type: cell-based; settings: CHO-K1, 10 μM test substance; agonist Des-Arg9-bradykinin 100 nM; % of maximum achievable inhibition; read-out: rB1R [10 μM] % inhibition
Sequence (P97583 whole entry): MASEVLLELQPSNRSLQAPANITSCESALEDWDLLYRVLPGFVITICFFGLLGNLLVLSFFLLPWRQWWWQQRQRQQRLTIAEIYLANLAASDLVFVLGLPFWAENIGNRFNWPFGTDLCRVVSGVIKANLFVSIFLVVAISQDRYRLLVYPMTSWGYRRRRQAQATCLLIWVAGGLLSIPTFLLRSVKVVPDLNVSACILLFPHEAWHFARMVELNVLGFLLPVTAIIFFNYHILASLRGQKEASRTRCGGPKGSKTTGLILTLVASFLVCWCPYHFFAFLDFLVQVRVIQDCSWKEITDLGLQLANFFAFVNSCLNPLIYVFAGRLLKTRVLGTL
quantity_name: inhibition at 10 µM (%)

compound	unit_symbol	test_result
CN(CCCC1CCC(Cc2ccccc2)(N2CCCC2)CC1)C(=O)CC(NS(=O)(=O)c1ccc2ccccc2c1)c1ccccc1 (stereo not shown) [Compound 74]	%	99
COc1cc(C)c(S(=O)(=O)N2CCCCC2COCC(=O)N(C)CC2CCC(Cc3ccccc3)(N3CCN(C)CC3)CC2)c(C)c1 (stereo not shown) [Compound 143]	%	111
CN(C)C1(Cc2ccccc2)CCN(C(=O)COCC2CCc3ccccc3N2S(=O)(=O)c2ccc(Cl)c(Cl)c2)CC1 (stereo not shown) [Compound 36]	%	101
Cc1cc(S(=O)(=O)N2CCCCC2CCC(=O)N(C)CC2CCC(Cc3ccccc3)(N3CCCC3)CC2)c(C)cc1Cl (stereo not shown) [Compound 129]	%	52
O=C(CC1c2ccccc2CCN1S(=O)(=O)c1ccc(Cl)c(Cl)c1)NC1CCC(Cc2ccccc2)(N2CCCCC2)CC1 (stereo not shown) [Compound 15]	%	82
COc1cc(C)c(S(=O)(=O)N(C)CCOCC(=O)N2CCC(CCc3ccccc3)(N(C)C)CC2)c(C)c1 [Compound 48]	%	100
CN1CCN(C2(Cc3ccccc3)CCC(CN(C)C(=O)COCCN(C)S(=O)(=O)c3c(Cl)cc(Cl)cc3Cl)CC2)CC1 (stereo not shown) [Compound 186]	%	64
